Source: patent US20260355225A1

assay: Cytotoxicity of D-xylose alone or + insulin, MTT assay, absence of viral infection (Example 2); conditions: human, hela tzmbl cells, Viability percentage, AZT 1.667 μM

| compound | viability at 48 h, 1.667 µM (%) |
| --- | --- |
| Cc1cn([C@H]2C[C@H](N=[N+]=[N-])[C@@H](CO)O2)c(=O)[nH]c1=O [AZT, 3-azido-3-deoxythymidine, reference compound] | 102 |

----------
test: Cytotoxicity of D-xylose, MTT assay, absence of viral infection (Example 1); format: cell-based; conditions: monkey, vero cells, 6 h pre-treatment; 21 mM; read-out: Viability percentage

| compoundStructure | viability at 21000 µM (%) |
| --- | --- |
| O=C[C@H](O)[C@@H](O)[C@H](O)CO | 110 |

----------
assay: Antiviral assay against HIV-1 NL4-3, percentage of infected cells by immunofluorescence (Example 2); settings: human, hela tzmbl cells, Viability Percentages, AZT 0.062 μM, replicate wells

| compound | viability at 48 h, 0.062 µM |
| --- | --- |
| Cc1cn([C@H]2C[C@H](N=[N+]=[N-])[C@@H](CO)O2)c(=O)[nH]c1=O [AZT, 3-azido-3-deoxythymidine, reference compound] | 74.2% |

----------
assay: Cytotoxicity of D-xylose, MTT assay, absence of viral infection (Example 1); assay type: cell-based; conditions: monkey, vero cells, 6 h pre-treatment; 1.3125 mM; read-out: Viability percentage

| compoundStructure | viability at 1312.5 µM [%] |
| --- | --- |
| O=C[C@H](O)[C@@H](O)[C@H](O)CO | 122 |

----------
test: Cytotoxicity of D-xylose, MTT assay, absence of viral infection (Example 1); assay type: cell-based; conditions: monkey, vero cells, remdesivir at the time of infection; 20 μm; read-out: Viability percentage
attributeMeasured: viability at 20 µM (%)

| compound | valueUnit | measuredNumber |
| --- | --- | --- |
| CCC(CC)COC(=O)[C@H](C)N[P@](=O)(OC[C@H]1O[C@@](C#N)(c2ccc3c(N)ncnn23)[C@H](O)[C@@H]1O)Oc1ccccc1 [Remdesivir, reference compound] | % | 101 |

----------
assay: Antiviral assay against HIV-1 NL4-3, percentage of infected cells by immunofluorescence (Example 2); details: human, hela tzmbl cells, Viability Percentages, AZT 0.007 μM, replicate wells

| molecule | viability at 48 h, 0.007 µM, % |
| --- | --- |
| Cc1cn([C@H]2C[C@H](N=[N+]=[N-])[C@@H](CO)O2)c(=O)[nH]c1=O [AZT, 3-azido-3-deoxythymidine, reference compound] | 48.2 |

----------
assay: Cytotoxicity of D-xylose alone or + insulin, MTT assay, absence of viral infection (Example 2); details: human, hela tzmbl cells, Viability percentage, AZT 0.002 μM
attributeMeasured: viability at 48 h, 0.002 µM (%)

| compound | measuredNumber |
| --- | --- |
| Cc1cn([C@H]2C[C@H](N=[N+]=[N-])[C@@H](CO)O2)c(=O)[nH]c1=O [AZT, 3-azido-3-deoxythymidine, reference compound] | 102 |

----------
assay: Cytotoxicity of D-xylose alone or + insulin, MTT assay, absence of viral infection (Example 2); conditions: human, hela tzmbl cells, Viability percentage, AZT 0.556 μM
attributeMeasured: viability at 48 h, 0.556 µM

| compound | attributeMeasured | result |
| --- | --- | --- |
| Cc1cn([C@H]2C[C@H](N=[N+]=[N-])[C@@H](CO)O2)c(=O)[nH]c1=O [AZT, 3-azido-3-deoxythymidine, reference compound] | viability at 48 h, 0.556 µM | 97.6% |
